Data credit: the OPERA property sets (Mansouri et al. 2018)

Record form. Attribute: melting point. Fill in for each entry.
Please provide the amount together with its unit, number first.

QUERY: Please report the recorded melting point for FC(F)=C(F)F .
RESULT: -142 °C

QUERY: Please report the recorded melting point for O=P(O)(O)c1ccccc1 .
RESULT: 164 °C

QUERY: Please report the recorded melting point for CC1COCc2cc3c(cc21)C(C)(C)C(C)C3(C)C (stereo not given) .
RESULT: -5 °C

QUERY: Please report the recorded melting point for O=C(O)Cc1ccccc1 .
RESULT: 76.5 °C

QUERY: Please report the recorded melting point for O=Cc1ccccc1C(=O)O .
RESULT: 98 °C

QUERY: Please report the recorded melting point for C[Si](C)(Cl)C(Cl)Cl .
RESULT: -48 °C

QUERY: Please report the recorded melting point for Nc1ccc(Cl)c(Cl)c1 .
RESULT: 72 °C

QUERY: Please report the recorded melting point for CC(C)(C)C(O)C(Oc1ccc(-c2ccccc2)cc1)n1cncn1 (stereo not given) .
RESULT: 127 °C

QUERY: Please report the recorded melting point for CCCCCCCCCCCCCCCCCCCCCCCC .
RESULT: 54 °C

QUERY: Please report the recorded melting point for O=C(O)c1ccc([N+](=O)[O-])c([N+](=O)[O-])c1 .
RESULT: 166 °C

QUERY: Please report the recorded melting point for CNC(=C[N+](=O)[O-])NCCSCc1csc(CN(C)C)n1 .
RESULT: 131 °C

QUERY: Please report the recorded melting point for Cc1c(NC(=O)C(C)N(C)C)c(=O)n(-c2ccccc2)n1C (stereo not given) .
RESULT: 181 °C

QUERY: Please report the recorded melting point for C/C=C/C/C=C/CCC(=O)[C@H]1O[C@H]1C(N)=O .
RESULT: 93.5 °C

QUERY: Please report the recorded melting point for CC1=C(O)C(=O)C(C)O1 (stereo not given) .
RESULT: 80.5 °C

QUERY: Please report the recorded melting point for CCCCCCCCCCCCc1ccc(N)cc1 .
RESULT: 40.5 °C

QUERY: Please report the recorded melting point for ClC(Cl)(Cl)C(Cl)(Cl)Cl .
RESULT: 187 °C

QUERY: Please report the recorded melting point for NCCCCCCCN .
RESULT: 28.9 °C

QUERY: Please report the recorded melting point for N#Cc1c(Cl)cccc1Cl .
RESULT: 144 °C

QUERY: Please report the recorded melting point for COc1cccc2cccnc12 .
RESULT: 49.5 °C

QUERY: Please report the recorded melting point for Fc1cccc(C(F)(F)F)c1 .
RESULT: -81.5 °C

QUERY: Please report the recorded melting point for C=CSC=C .
RESULT: 20 °C

QUERY: Please report the recorded melting point for C=CC(N)=O .
RESULT: 84.5 °C

QUERY: Please report the recorded melting point for Cc1cccc(S)c1 .
RESULT: -20 °C

QUERY: Please report the recorded melting point for CC(=O)c1ccc(-c2ccccc2)cc1 .
RESULT: 121 °C

QUERY: Please report the recorded melting point for C=CCNC(N)=S .
RESULT: 78 °C

QUERY: Please report the recorded melting point for CN(C)CCN(C)C .
RESULT: -55 °C

QUERY: Please report the recorded melting point for OC(c1ccc(Cl)cc1)c1cc2ccccc2o1 (stereo not given) .
RESULT: 48.5 °C

QUERY: Please report the recorded melting point for CCCCOCCOCCCC .
RESULT: -69.1 °C

QUERY: Please report the recorded melting point for C[C@@H](N)C(C)(C)C .
RESULT: -20 °C

QUERY: Please report the recorded melting point for C=Cc1ccccc1Cl .
RESULT: -63.1 °C

QUERY: Please report the recorded melting point for CC(C1CC1)C(O)(Cn1cncn1)c1ccc(Cl)cc1 (stereo not given) .
RESULT: 108 °C

QUERY: Please report the recorded melting point for COC(=O)c1ccccc1 .
RESULT: -15 °C

QUERY: Please report the recorded melting point for Clc1cc(Cl)c2oc3c(Cl)c(Cl)cc(Cl)c3c2c1 .
RESULT: 204 °C

QUERY: Please report the recorded melting point for Cc1cccc(C)c1N(Cn1cccn1)C(=O)CCl .
RESULT: 85 °C

QUERY: Please report the recorded melting point for Cc1cc(O)ccc1O .
RESULT: 128 °C

QUERY: Please report the recorded melting point for Nc1ccc(C=O)cc1 .
RESULT: 71.5 °C

QUERY: Please report the recorded melting point for Cc1cc(C)cc(C(=O)O)c1 .
RESULT: 171 °C

QUERY: Please report the recorded melting point for O=C(Cc1ccccc1)Cc1ccccc1 .
RESULT: 35 °C

QUERY: Please report the recorded melting point for CC(C)[C@H]1CC[C@H](C)C[C@@H]1OCC(=O)O .
RESULT: 54 °C

QUERY: Please report the recorded melting point for CC12CCC(C(Cl)C1=O)C2(C)C (stereo not given) .
RESULT: 106 °C

QUERY: Please report the recorded melting point for Cc1c(Br)cc(Br)c(O)c1Br .
RESULT: 84 °C

QUERY: Please report the recorded melting point for CCCCCCOC(=O)CCCCC .
RESULT: -55 °C

QUERY: Please report the recorded melting point for Cc1cccc(C)c1I .
RESULT: 11.2 °C

QUERY: Please report the recorded melting point for C=CCCCCCCCCC .
RESULT: -49.2 °C

QUERY: Please report the recorded melting point for CCCOC(=O)Cn1cc(I)c(=O)c(I)c1 .
RESULT: 186 °C

QUERY: Please report the recorded melting point for NC[C@H](O)C(=O)O .
RESULT: 235 °C

QUERY: Please report the recorded melting point for Cc1cc(C)c(C)cc1C .
RESULT: 79.3 °C

QUERY: Please report the recorded melting point for COC(=O)c1ccc(Cl)cc1 .
RESULT: 43.5 °C

QUERY: Please report the recorded melting point for CC(=O)c1cccnc1 .
RESULT: 13.5 °C

QUERY: Please report the recorded melting point for Nc1cccc2cc3ccccc3cc12 .
RESULT: 116 °C

QUERY: Please report the recorded melting point for O=C(O)CCCCCCCCCCCCCCCO .
RESULT: 98 °C

QUERY: Please report the recorded melting point for COc1ccc(CO)cc1O .
RESULT: 136 °C

QUERY: Please report the recorded melting point for CCc1ccc(C(c2ccc(CC)cc2)C(Cl)Cl)cc1 .
RESULT: 56 °C

QUERY: Please report the recorded melting point for CC[C@H]1C[N@@]2CC[C@H]1C[C@@H]2[C@@H](O)c1ccnc2ccccc12 .
RESULT: 268 °C

QUERY: Please report the recorded melting point for NCCCCCCCCCCN .
RESULT: 62.5 °C

QUERY: Please report the recorded melting point for O=C(O)C(O)c1ccc(Br)cc1 (stereo not given) .
RESULT: 118 °C

QUERY: Please report the recorded melting point for C=C(Br)CC .
RESULT: -133 °C

QUERY: Please report the recorded melting point for C[Si](C)(C)C#C[Si](C)(C)C .
RESULT: 26 °C

QUERY: Please report the recorded melting point for CN(C)C(=S)Sc1ccc([N+](=O)[O-])cc1[N+](=O)[O-] .
RESULT: 152 °C

QUERY: Please report the recorded melting point for Clc1cccc(Cl)c1Cl .
RESULT: 53.5 °C

QUERY: Please report the recorded melting point for CCOC(=O)CCCCC(=O)OCC .
RESULT: -19.8 °C

QUERY: Please report the recorded melting point for CCOc1ccc(C#N)cc1 .
RESULT: 61.5 °C

QUERY: Please report the recorded melting point for Cc1cccc([N+](=O)[O-])c1N .
RESULT: 96 °C

QUERY: Please report the recorded melting point for Fc1cc(F)c(F)c(F)c1 .
RESULT: -48 °C

QUERY: Please report the recorded melting point for CC(=O)NC(=O)NC(C)=O .
RESULT: 154 °C
